Provide the reported pKd of each item.
- EXPERIMENTAL_TARGET: SARS-COV-2 Spike glycoprotein (SARS-CoV-2, UniProt P0DTC2 14-1208)
- EXPERIMENTAL_DETAILS: estimated Kd for Spike (avidity), Table 10
Kindly note that pKd refers to -log10 of the concentration in mol/L and answer with the value alone.

Briefly, pKd measured for LCB2-1 (designed binder) SDDEDSVRYLLYMAELRYEQGNPEKAKKILEMAEFIAKRNNNEELERLVREVKKRL : 10.00

Quick note, pKd for LCB3_v1.2-PRO-LCB3_v1.2 (3PRO3) (designed binder) NDDELHMQMTDLVYEALHFAKDEEIQKHVFQLFEKATKAYKNKDRQKLEKVVEELKELLERLLSAGSGGSGGSGGSPVPSTPPTPSPSTPPTPSPSPVPSTPPTPSPSTPPTPSPSPVPSTPPTPSPSTPPTPSPSASGNDDELHMQMTDLVYEALHFAKDEEIQKHVFQLFEKATKAYKNKDRQKLEKVVEELKELLERLLS landed at 10.00

// recorded pKd for LCB4-1 (designed binder) QREKRLKQLEMLLEYAIERNDPYLMFDVAVEMLRLAEENNDERIIERAKRILEEYE : 10.00
